molecular target: UniProtKB P28827; assay: Inhibition of PTPmu (unknown origin)
Sequence (P28827 whole entry): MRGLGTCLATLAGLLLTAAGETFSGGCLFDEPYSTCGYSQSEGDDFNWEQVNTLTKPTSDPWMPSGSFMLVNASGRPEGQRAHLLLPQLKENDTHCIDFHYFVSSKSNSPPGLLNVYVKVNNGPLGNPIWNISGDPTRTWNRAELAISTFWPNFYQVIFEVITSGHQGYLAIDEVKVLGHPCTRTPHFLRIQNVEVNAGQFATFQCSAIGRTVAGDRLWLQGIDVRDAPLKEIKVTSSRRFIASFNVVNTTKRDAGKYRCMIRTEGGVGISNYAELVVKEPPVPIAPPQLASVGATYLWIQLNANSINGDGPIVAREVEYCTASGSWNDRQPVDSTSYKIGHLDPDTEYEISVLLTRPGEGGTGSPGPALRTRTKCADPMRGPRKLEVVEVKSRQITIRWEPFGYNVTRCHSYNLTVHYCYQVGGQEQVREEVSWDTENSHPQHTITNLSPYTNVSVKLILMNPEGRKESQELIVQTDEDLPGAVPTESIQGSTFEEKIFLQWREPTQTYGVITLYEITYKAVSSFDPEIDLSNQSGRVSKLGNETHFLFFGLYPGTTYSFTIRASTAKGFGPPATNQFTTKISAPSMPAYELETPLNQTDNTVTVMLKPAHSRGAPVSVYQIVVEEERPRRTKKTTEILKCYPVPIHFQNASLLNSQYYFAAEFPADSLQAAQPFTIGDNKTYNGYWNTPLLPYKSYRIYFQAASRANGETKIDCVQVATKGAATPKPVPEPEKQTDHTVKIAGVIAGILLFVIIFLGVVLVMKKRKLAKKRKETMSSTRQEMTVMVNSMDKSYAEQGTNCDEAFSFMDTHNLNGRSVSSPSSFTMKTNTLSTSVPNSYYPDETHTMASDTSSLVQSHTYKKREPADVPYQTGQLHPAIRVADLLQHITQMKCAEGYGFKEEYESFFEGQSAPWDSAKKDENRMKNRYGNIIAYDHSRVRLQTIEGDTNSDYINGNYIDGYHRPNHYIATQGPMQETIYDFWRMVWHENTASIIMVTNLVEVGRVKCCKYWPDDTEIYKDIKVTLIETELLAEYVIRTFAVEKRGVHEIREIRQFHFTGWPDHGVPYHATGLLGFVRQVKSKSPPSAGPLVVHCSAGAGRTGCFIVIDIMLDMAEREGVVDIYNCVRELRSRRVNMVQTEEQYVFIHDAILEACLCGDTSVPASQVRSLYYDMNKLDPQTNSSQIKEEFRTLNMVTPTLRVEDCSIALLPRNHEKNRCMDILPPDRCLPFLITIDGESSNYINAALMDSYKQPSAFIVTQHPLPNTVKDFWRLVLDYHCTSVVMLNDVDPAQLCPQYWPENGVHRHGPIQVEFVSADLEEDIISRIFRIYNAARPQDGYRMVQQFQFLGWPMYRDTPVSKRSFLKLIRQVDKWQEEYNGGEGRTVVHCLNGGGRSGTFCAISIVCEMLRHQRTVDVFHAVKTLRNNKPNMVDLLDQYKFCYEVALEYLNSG
pIC50: −log10 of the molar value.

chemical-smiles	pIC50
Cc1c(Br)cc(NC(=O)NS(=O)(=O)O)cc1Br	< 5.00

* * *

target: Receptor-type tyrosine-protein phosphatase epsilon (Homo sapiens, UniProt P23469)
Sequence (P23469 whole entry): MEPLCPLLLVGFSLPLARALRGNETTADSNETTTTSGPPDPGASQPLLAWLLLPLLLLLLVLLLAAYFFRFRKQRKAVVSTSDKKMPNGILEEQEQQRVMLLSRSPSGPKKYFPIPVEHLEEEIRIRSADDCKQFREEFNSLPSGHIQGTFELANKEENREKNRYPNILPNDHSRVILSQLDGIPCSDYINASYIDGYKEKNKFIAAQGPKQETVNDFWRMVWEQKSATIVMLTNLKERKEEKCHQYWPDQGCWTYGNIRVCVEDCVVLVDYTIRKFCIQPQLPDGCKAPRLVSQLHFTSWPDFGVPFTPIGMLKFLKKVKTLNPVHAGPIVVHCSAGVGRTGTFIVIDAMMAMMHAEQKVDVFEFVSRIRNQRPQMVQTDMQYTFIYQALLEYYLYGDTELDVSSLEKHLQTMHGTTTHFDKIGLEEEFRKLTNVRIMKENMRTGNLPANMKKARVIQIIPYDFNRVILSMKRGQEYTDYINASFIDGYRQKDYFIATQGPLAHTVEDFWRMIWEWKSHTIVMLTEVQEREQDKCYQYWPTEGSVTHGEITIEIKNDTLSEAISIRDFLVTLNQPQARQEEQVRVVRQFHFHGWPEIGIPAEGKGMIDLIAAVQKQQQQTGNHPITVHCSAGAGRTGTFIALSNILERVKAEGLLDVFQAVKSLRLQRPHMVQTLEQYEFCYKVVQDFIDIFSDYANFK
pIC50: −log10 of the molar value.
property-name: pIC50

chemical-smiles	experimental-result
Cc1c(Br)cc(NC(=O)NS(=O)(=O)O)cc1Br	< 5.00

* * *

Form field: fCmax (one value per entry).
experiment: Unbound Cmax in plasma of CD-1 mouse at 10 mg/kg, po measured after 8 hrs by LC-MS/MS analysis; type: ADME, organism-based; conditions: in vivo

molecule	qual	fCmax, nM
Cc1c(Br)cc(NC(=O)CS(=O)(=O)O)cc1Br	<	16
Cc1c(Br)cc(NC(=O)NS(=O)(=O)O)cc1Br	=	233
Cc1c(Br)cc(NC(=O)C(c2ccccc2)S(=O)(=O)O)cc1Br (centres undefined)	<	6
O=C(CS(=O)(=O)O)Nc1ccc(N2CCOCC2)c(Br)c1	=	117

* * *

target: Low molecular weight phosphotyrosine protein phosphatase (Homo sapiens, UniProt P24666)
pKi: −log10 of the molar value.

chemical-smiles	pKi
Cc1c(Br)cc(NC(=O)NS(=O)(=O)O)cc1Br	8.92

* * *

Molecular target: Low molecular weight phosphotyrosine protein phosphatase (Homo sapiens, UniProt P24666)
Sequence (P24666 whole entry): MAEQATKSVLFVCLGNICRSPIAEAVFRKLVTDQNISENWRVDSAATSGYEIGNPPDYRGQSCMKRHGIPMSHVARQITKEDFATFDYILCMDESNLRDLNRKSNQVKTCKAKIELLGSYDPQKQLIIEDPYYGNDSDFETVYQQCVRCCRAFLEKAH
Form field: log10 of IC50 (one value per entry).
property-name: log10 of IC50 (log10 of the value in nM)

chemical-smiles	measured-target	log10 of IC50
O=C(CS(=O)(=O)O)Nc1cc(Br)cc(C(F)(F)F)c1	Low molecular weight phosphotyrosine protein phosphatase (Homo sapiens, UniProt P24666)	3.72
O=C(CS(=O)(=O)O)Nc1ccc(N2CCOCC2)c(Br)c1	Low molecular weight phosphotyrosine protein phosphatase (Homo sapiens, UniProt P24666)	3.18
CS(=O)(=O)c1ccc2nc(NC(=O)CS(=O)(=O)O)sc2c1	Low molecular weight phosphotyrosine protein phosphatase (Homo sapiens, UniProt P24666)	2.48
O=C(CS(=O)(=O)O)Nc1nc2cc([N+](=O)[O-])ccc2s1	Low molecular weight phosphotyrosine protein phosphatase (Homo sapiens, UniProt P24666)	2.60
Cc1ccc2nc(NC(=O)CS(=O)(=O)O)sc2c1	Low molecular weight phosphotyrosine protein phosphatase (Homo sapiens, UniProt P24666)	3.23
O=C(CS(=O)(=O)O)Nc1nc2ccc(C(F)(F)F)cc2s1	Low molecular weight phosphotyrosine protein phosphatase (Homo sapiens, UniProt P24666)	2.78
O=C(CS(=O)(=O)O)Nc1cnc(N2CCOCC2)c(Br)c1	Low molecular weight phosphotyrosine protein phosphatase (Homo sapiens, UniProt P24666)	3.08
O=C(CS(=O)(=O)O)Nc1nc2cccc([N+](=O)[O-])c2s1	Low molecular weight phosphotyrosine protein phosphatase (Homo sapiens, UniProt P24666)	3.18
O=C(CS(=O)(=O)O)Nc1cnc2ncccc2c1	Low molecular weight phosphotyrosine protein phosphatase (Homo sapiens, UniProt P24666)	3.18
O=C(Nc1ccc(N2CCOCC2)c(Br)c1)NS(=O)(=O)O	Low molecular weight phosphotyrosine protein phosphatase (Homo sapiens, UniProt P24666)	0.90
Cc1c(Br)cc(NC(=O)[C@@H](C#N)S(=O)(=O)O)cc1Br	Low molecular weight phosphotyrosine protein phosphatase (Homo sapiens, UniProt P24666)	3.64
O=C(CS(=O)(=O)O)Nc1nccs1	Low molecular weight phosphotyrosine protein phosphatase (Homo sapiens, UniProt P24666)	4.09
N.O=C(Nc1nc2ccccc2s1)NS(=O)(=O)O	Low molecular weight phosphotyrosine protein phosphatase (Homo sapiens, UniProt P24666)	1.75
O=C(CS(=O)(=O)O)Nc1ncc(-c2ccccc2)s1	Low molecular weight phosphotyrosine protein phosphatase (Homo sapiens, UniProt P24666)	3.18
Cc1c(Br)cc(NC(=O)CS(=O)(=O)O)cc1Br	Low molecular weight phosphotyrosine protein phosphatase (Homo sapiens, UniProt P24666)	3.34
O=C(CS(=O)(=O)O)Nc1cc(Br)cc2ccccc12	Low molecular weight phosphotyrosine protein phosphatase (Homo sapiens, UniProt P24666)	3.78

All figures here come from ChEMBL document CHEMBL5214960.
